System: Trichophyton interdigitale ATCC 9533, CCM 8377
experiment_summary: Antifungal microdilution broth method (EUCAST)
Format: cell-based
study_conditions: 72 h, read-out: MIC TI
reported_property: MIC

>  <smiles_notation>
CCCCCCCCNc1cnc(C(=O)Nc2cccc(O)c2)cn1

>  <measurement_target>
Trichophyton interdigitale ATCC 9533, CCM 8377

>  <reported_property>
MIC

>  <recorded_measurement>
> 125 µM

$$$$
>  <smiles_notation>
CCCNc1cnc(C(=O)Nc2ccc(CC)cc2)cn1

>  <measurement_target>
Trichophyton interdigitale ATCC 9533, CCM 8377

>  <reported_property>
MIC

>  <recorded_measurement>
> 125 µM

$$$$
>  <smiles_notation>
CCCCCCNc1cnc(C(=O)Nc2ccc(O)cc2)cn1

>  <measurement_target>
Trichophyton interdigitale ATCC 9533, CCM 8377

>  <reported_property>
MIC

>  <recorded_measurement>
> 500 µM

$$$$
>  <smiles_notation>
CCCCCCNc1cnc(C(=O)Nc2ccc(CC)cc2)cn1

>  <measurement_target>
Trichophyton interdigitale ATCC 9533, CCM 8377

>  <reported_property>
MIC

>  <recorded_measurement>
> 125 µM

$$$$
>  <smiles_notation>
CCCNc1cnc(C(=O)Nc2cccc(C(F)(F)F)c2)cn1

>  <measurement_target>
Trichophyton interdigitale ATCC 9533, CCM 8377

>  <reported_property>
MIC

>  <recorded_measurement>
> 125 µM

$$$$
>  <smiles_notation>
CCCCCCCNc1cnc(C(=O)Nc2cccc(C(F)(F)F)c2)cn1

>  <measurement_target>
Trichophyton interdigitale ATCC 9533, CCM 8377

>  <reported_property>
MIC

>  <recorded_measurement>
> 500 µM

$$$$

For the next question, use this compound.
Give the measured MIC of CCCCNc1cnc(C(=O)Nc2ccc(C)cc2)cn1 .
> 125 µM

====

Give MIC for every item shown.
Tested on: Staphylococcus aureus methicillin resistant ATCC 43300, CCM 4750
experiment_summary: microbe, parasite or virus in culture
Type: cell-based
study_conditions: ATCC 43300 / CCM 4750 / MRSA, 24 h, read-out: MIC MRSA

Study these solved cases before continuing.
>  <compound>
CCCCCNc1cnc(C(=O)Nc2ccc(C)cc2)cn1 [Compound 4c]

>  <reported_property>
MIC

>  <recorded_measurement>
> 500 µM

$$$$
>  <compound>
CCCCCCNc1cnc(C(=O)Nc2cccc(C(F)(F)F)c2)cn1 [Compound 1d]

>  <reported_property>
MIC

>  <recorded_measurement>
> 500 µM

$$$$
>  <compound>
CCCCCNc1cnc(C(=O)Nc2cccc(C(F)(F)F)c2)cn1 [Compound 1c]

>  <reported_property>
MIC

>  <recorded_measurement>
> 500 µM

$$$$
>  <compound>
CCCNc1cnc(C(=O)Nc2cccc(C(F)(F)F)c2)cn1 [Compound 1a]

>  <reported_property>
MIC

>  <recorded_measurement>
> 500 µM

$$$$
>  <compound>
CCCNc1cnc(C(=O)Nc2ccc(CC)cc2)cn1 [Compound 5a]

>  <reported_property>
MIC

>  <recorded_measurement>
> 125 µM

$$$$

Dear reader, for each entry below, please note its MIC.
1. CCCCNc1cnc(C(=O)Nc2ccc(O)cc2)cn1 [Compound 3b]
2. CCCCCCCCNc1cnc(C(=O)Nc2cccc(C(F)(F)F)c2)cn1 [Compound 1f]
3. CCCNc1cnc(C(=O)Nc2ccc(O)cc2)cn1 [Compound 3a]
4. CCCCCCCCNc1cnc(C(=O)Nc2cccc(O)c2)cn1 [Compound 2f]
5. CCCCCNc1cnc(C(=O)Nc2ccc(O)cc2)cn1 [Compound 3c]
6. CCCCCCCNc1cnc(C(=O)Nc2ccc(O)cc2)cn1 [Compound 3e]
7. CCCNc1cnc(C(=O)Nc2cccc(O)c2)cn1 [Compound 2a]

1: > 500 µM; 2: > 500 µM; 3: > 500 µM; 4: > 125 µM; 5: > 125 µM; 6: > 500 µM; 7: > 125 µM

Dear reader, for each entry below, please note its MIC.
1. CCCCCCNc1cnc(C(=O)Nc2ccc(C)cc2)cn1 [Compound 4d]
2. CCCCCCCNc1cnc(C(=O)Nc2ccc(C)cc2)cn1 [Compound 4e]
3. CCCCCCNc1cnc(C(=O)Nc2ccc(CC)cc2)cn1 [Compound 5d]
4. CCCCCCCNc1cnc(C(=O)Nc2cccc(C(F)(F)F)c2)cn1 [Compound 1e]

["> 500 µM", "> 500 µM", "> 500 µM", "> 500 µM"]

====

Tested on: Mycobacterium tuberculosis H37Ra ITM-M006710 (ATCC 9431)
experiment_summary: Microdilution broth, modified Microplate Alamar Blue Assay, whole cell growth inhibition
Format: cell-based
study_conditions: Mycobacterium tuberculosis; MIC converted to µM; read-out: MIC Mtb H37Ra
reported_property: MIC
Just the number plus its unit, please.

Study these solved cases before continuing.
>  <smiles_notation>
CCCNc1cnc(C(=O)Nc2ccc(CC)cc2)cn1

>  <MIC>
27.5 µM

$$$$
>  <smiles_notation>
CCCCCCCNc1cnc(C(=O)Nc2ccc(C)cc2)cn1

>  <MIC>
2.39 µM

$$$$
>  <smiles_notation>
CCCCCNc1cnc(C(=O)Nc2ccc(O)cc2)cn1

>  <MIC>
13 µM

$$$$
>  <smiles_notation>
CCCCNc1cnc(C(=O)Nc2cccc(C(F)(F)F)c2)cn1

>  <MIC>
9.24 µM

$$$$

For the next question, use this compound.
Give the measured MIC of CCCCCCNc1cnc(C(=O)Nc2ccc(C)cc2)cn1 .
4.99 µM

====

Give MIC for every item shown.
Tested on: Mycobacterium smegmatis DSM 43465 (ATCC 607)
experiment_summary: Microdilution broth, modified Microplate Alamar Blue Assay, whole cell growth inhibition
Assay type: cell-based
study_conditions: Mycolicibacterium smegmatis; in vitro, Middlebrook 7H9 broth, resazurin; read-out: MIC Mycobacterium smegmatis
Give bare numbers, in µg/mL.

>  <compound>
CCCCNc1cnc(C(=O)Nc2cc(Cl)ccc2O)cn1 [Compound 7b]

>  <recorded_measurement>
3.91

$$$$

Give the measured MIC of CCCCCCCCNc1cnc(C(=O)Nc2ccc(Cl)cc2O)cn1 [Compound 6f] .
7.81

====

Test system: Escherichia coli ATCC 25922, CCM 3954
experiment_summary: Antibacterial microdilution broth method (EUCAST)
Format: cell-based
study_conditions: 24 h, read-out: MIC EC
Give MIC for every item shown.

Dear reader, for each entry below, please note its MIC.
1. CCCCCNc1cnc(C(=O)Nc2ccc(O)cc2)cn1 [Compound 3c]
2. CCCCNc1cnc(C(=O)Nc2cccc(C(F)(F)F)c2)cn1 [Compound 1b]
3. CCCCCCCCNc1cnc(C(=O)Nc2cccc(O)c2)cn1 [Compound 2f]
4. CCCCCCNc1cnc(C(=O)Nc2cccc(C(F)(F)F)c2)cn1 [Compound 1d]
5. CCCCCCCNc1cnc(C(=O)Nc2cccc(C(F)(F)F)c2)cn1 [Compound 1e]

1. > 125 µM
2. > 500 µM
3. > 125 µM
4. > 500 µM
5. > 500 µM

====

System: Candida parapsilosis ATCC 22019, CCM 8260
experiment_summary: Antifungal microdilution broth method (EUCAST)
Assay type: cell-based
study_conditions: Lodderomyces parapsilosis, 24 h, read-out: MIC CP
reported_property: MIC

Study these solved cases before continuing.
>  <smiles_notation>
CCCCNc1cnc(C(=O)Nc2ccc(O)cc2)cn1

>  <reported_property>
MIC

>  <recorded_measurement>
250 µM

$$$$
>  <smiles_notation>
CCCCCCCNc1cnc(C(=O)Nc2cccc(C(F)(F)F)c2)cn1

>  <reported_property>
MIC

>  <recorded_measurement>
> 500 µM

$$$$
>  <smiles_notation>
CCCCCNc1cnc(C(=O)Nc2ccc(O)cc2)cn1

>  <reported_property>
MIC

>  <recorded_measurement>
> 125 µM

$$$$
>  <smiles_notation>
CCCCCCNc1cnc(C(=O)Nc2ccc(O)cc2)cn1

>  <reported_property>
MIC

>  <recorded_measurement>
> 500 µM

$$$$
>  <smiles_notation>
CCCCNc1cnc(C(=O)Nc2cccc(O)c2)cn1

>  <reported_property>
MIC

>  <recorded_measurement>
> 125 µM

$$$$

Dear reader, for each entry below, please note its MIC.
1. CCCCNc1cnc(C(=O)Nc2ccc(C)cc2)cn1
2. CCCCCCCNc1cnc(C(=O)Nc2ccc(CC)cc2)cn1

1: > 125 µM; 2: > 125 µM

Dear reader, for each entry below, please note its MIC.
1. CCCCCCCCNc1cnc(C(=O)Nc2cccc(C(F)(F)F)c2)cn1
2. CCCCCCCCNc1cnc(C(=O)Nc2ccc(C)cc2)cn1
3. CCCCCNc1cnc(C(=O)Nc2ccc(C)cc2)cn1
4. CCCCCCNc1cnc(C(=O)Nc2ccc(C)cc2)cn1
5. CCCNc1cnc(C(=O)Nc2cccc(C(F)(F)F)c2)cn1

1. > 500 µM
2. > 125 µM
3. > 125 µM
4. 125 µM
5. > 125 µM
